Target: P-selectin (Homo sapiens)
Sequence (P16109 whole entry): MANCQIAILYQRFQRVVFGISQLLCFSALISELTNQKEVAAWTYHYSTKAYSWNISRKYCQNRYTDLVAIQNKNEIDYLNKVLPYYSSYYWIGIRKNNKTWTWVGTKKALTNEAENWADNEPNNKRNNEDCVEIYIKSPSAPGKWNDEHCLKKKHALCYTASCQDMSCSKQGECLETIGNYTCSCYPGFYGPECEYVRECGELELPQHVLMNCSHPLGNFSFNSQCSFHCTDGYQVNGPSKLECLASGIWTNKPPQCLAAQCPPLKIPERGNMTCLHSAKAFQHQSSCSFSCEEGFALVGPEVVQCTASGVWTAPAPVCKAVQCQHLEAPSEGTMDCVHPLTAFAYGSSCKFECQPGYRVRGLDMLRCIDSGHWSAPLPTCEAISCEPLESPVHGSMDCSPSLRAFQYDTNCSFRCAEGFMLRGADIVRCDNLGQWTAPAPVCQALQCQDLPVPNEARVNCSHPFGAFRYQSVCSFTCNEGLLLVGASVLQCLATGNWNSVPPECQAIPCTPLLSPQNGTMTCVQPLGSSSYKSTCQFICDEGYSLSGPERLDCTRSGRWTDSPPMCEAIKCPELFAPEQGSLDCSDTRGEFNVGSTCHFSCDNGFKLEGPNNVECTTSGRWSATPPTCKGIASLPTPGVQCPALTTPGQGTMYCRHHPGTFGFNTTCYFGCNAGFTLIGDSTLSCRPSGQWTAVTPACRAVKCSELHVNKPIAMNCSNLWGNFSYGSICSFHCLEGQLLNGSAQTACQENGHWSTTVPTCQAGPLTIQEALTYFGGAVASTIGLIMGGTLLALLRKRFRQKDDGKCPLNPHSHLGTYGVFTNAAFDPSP
Assay: Compound was tested in a cell-free SLe-polyacrylamide glycoconjugate binding assay (assay B) in P-selectin
// values below are reported log10(IC50)
Could you please treat all values as log10 of IC50 in µM?

CCOCCOCCOCCOCCCCOCC1OC(CC(=O)NC(CCC(=O)O)C(=O)O)C(O)C(O)C1O (stereo unspecified): 1.30
CC1OC(CC(C(=O)NCCc2ccccc2)N(CC(=O)NC(CCC(=O)O)C(=O)O)C(=O)CCc2ccc(Oc3ccc(Oc4ccccc4)cc3)cc2)C(O)C(O)C1O (stereo unspecified): 1.45
O=C(O)CCC(NC(=O)CC1OC(COCCCc2ccc(Oc3ccc(Oc4ccccc4)cc3)cc2)C(O)C(O)C1O)C(=O)O (stereo unspecified): 0.60
COC(=O)CNC(=O)C(CCC(=O)O)N(C(=O)CC1OC(CO)C(O)C(O)C1O)C(CCC(=O)O)C(=O)O (stereo unspecified): 1.45
CC1OC(CC(=O)N(CC(=O)NC(CCC(=O)O)C(=O)O)C(CCc2ccc(Oc3ccc(Oc4ccccc4)cc3)cc2)C(=O)NCCc2ccccc2)C(O)C(O)C1O (stereo unspecified): 1.88

Give the measured log10(IC50) of O=C(O)CCC(C(=O)O)N(C(=O)CC1OC(CO)C(O)C(O)C1O)C(CCC(=O)O)C(=O)NCC(=O)O (stereo unspecified) . 1.18

---

biological target: E-selectin (Homo sapiens); test: Compound was tested in a cell-free SLe-polyacrylamide glycoconjugate binding assay (assay B) in Selectin E
Sequence (P16581 whole entry): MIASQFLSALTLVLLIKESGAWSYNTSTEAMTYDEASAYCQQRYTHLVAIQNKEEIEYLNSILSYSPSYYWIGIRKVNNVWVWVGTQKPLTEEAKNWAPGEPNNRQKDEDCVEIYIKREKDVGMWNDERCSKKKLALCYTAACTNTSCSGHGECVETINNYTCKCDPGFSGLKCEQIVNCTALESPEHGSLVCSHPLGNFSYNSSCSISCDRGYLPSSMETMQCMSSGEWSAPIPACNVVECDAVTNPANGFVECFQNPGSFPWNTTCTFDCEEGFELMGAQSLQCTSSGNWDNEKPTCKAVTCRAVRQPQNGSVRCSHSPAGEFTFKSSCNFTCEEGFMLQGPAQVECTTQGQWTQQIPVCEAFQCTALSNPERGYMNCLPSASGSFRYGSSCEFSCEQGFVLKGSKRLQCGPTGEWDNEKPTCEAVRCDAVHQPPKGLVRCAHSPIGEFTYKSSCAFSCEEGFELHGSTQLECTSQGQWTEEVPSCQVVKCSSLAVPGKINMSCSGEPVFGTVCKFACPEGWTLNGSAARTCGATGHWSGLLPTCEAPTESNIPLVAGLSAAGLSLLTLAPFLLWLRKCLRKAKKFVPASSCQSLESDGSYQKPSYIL
Listing of recorded IC50 by entry.

Consider the following illustrative entries.
CCOCCOCCOCCOCCCCOCC1OC(CC(=O)N(C(C)C(=O)NCC(=O)OC)C(CCC(=O)O)C(=O)O)C(O)C(O)C1O (stereo unspecified): > 10 mM
COC(=O)CNC(=O)C(C)N(C(=O)CC1OC(COc2ccccc2)C(O)C(O)C1O)C(CCC(=O)O)C(=O)O (stereo unspecified): > 2.5 mM
CC(=O)N[C@H]1[C@H]([C@H](O)[C@H](O)CO)O[C@@](O[C@H]2[C@@H](O)[C@@H](CO)O[C@@H](O[C@@H]([C@H](O[C@@H]3O[C@@H](C)[C@@H](O)[C@@H](O)[C@@H]3O)[C@H](C=O)NC(C)=O)[C@H](O)CO)[C@@H]2O)(C(=O)O)C[C@@H]1O: 1.09 mM
CCOCCOCCOCCOCCCCOCC1OC(CC(=O)NC(CCC(=O)O)C(=O)O)C(O)C(O)C1O (stereo unspecified): > 10 mM

Which IC50 is listed for COC(=O)CCC(=O)N(C(CCC(=O)O)C(=O)O)C(CC1OC(CO)C(O)C(O)C1O)C(=O)NCC(=O)OC (stereo unspecified) ? > 4 mM

Which value of IC50 has been reported for O=C(O)CCC(NC(=O)CC1OC(COCCCc2ccc(Oc3ccc(Oc4ccccc4)cc3)cc2)C(O)C(O)C1O)C(=O)O (stereo unspecified) in the records? > 10 mM

---

molecular target: P-selectin (Homo sapiens, UniProt P16109); experiment: Tested in a cell-free SLe-polyacrylamide glycoconjugate binding assay (assay A) in P-selectin
Property: IC50; scope: individual compounds
Provide only the numeric value, understood in µM.

O=C(O)CCC(NC(=O)CC1OC(COCCCc2ccc(Oc3ccc(Oc4ccccc4)cc3)cc2)C(O)C(O)C1O)C(=O)O (stereo not given): 34

Proceeding to the next compound to report its IC50.
Give the measured IC50 of CC1OC(CC(C(=O)NCCc2ccccc2)N(CC(=O)NC(CCC(=O)O)C(=O)O)C(=O)CCc2ccc(Oc3ccc(Oc4ccccc4)cc3)cc2)C(O)C(O)C1O (stereo not given) . 283

---

target: E-selectin (Homo sapiens); test: Inhibitory activity against E-selectin was tested in a cell-free SLe-polymer/Selectin E assay, at 3 mM concentration.
Each entry below carries its reported inhibition.
Answers without a unit are incomplete; give the number and then its unit.

Worked set:
O=C(O)CNC(=O)C(CC1OC(CO)C(O)C(O)C1O)N(CC(=O)O)C(=O)Cc1ccc2ccccc2c1 (stereo not given): 51%
O=C(O)CNC(=O)C(CC1OC(CO)C(O)C(O)C1O)N(CC(=O)O)C(=O)c1ccccc1 (stereo not given): 38%

Any idea what its inhibition is? The compound is O=C(O)CNC(=O)C(CC1OC(CO)C(O)C(O)C1O)N(CC(=O)O)C(=O)c1cccc2c1Cc1ccccc1-2 (stereo not given) 48%

Given the compound CCCCCCCCCCCCCC(=O)N(CC(=O)O)C(CC1OC(CO)C(O)C(O)C1O)C(=O)NCC(=O)O (stereo not given) , what is its reported inhibition? 32%

Sample O=C(O)CNC(=O)C(CC1OC(CO)C(O)C(O)C1O)N(CC(=O)O)C(=O)Cc1cccc2ccccc12 (stereo not given) — what was its inhibition? 42%

---

Target: UniProt P16109
Sequence (P16109 whole entry): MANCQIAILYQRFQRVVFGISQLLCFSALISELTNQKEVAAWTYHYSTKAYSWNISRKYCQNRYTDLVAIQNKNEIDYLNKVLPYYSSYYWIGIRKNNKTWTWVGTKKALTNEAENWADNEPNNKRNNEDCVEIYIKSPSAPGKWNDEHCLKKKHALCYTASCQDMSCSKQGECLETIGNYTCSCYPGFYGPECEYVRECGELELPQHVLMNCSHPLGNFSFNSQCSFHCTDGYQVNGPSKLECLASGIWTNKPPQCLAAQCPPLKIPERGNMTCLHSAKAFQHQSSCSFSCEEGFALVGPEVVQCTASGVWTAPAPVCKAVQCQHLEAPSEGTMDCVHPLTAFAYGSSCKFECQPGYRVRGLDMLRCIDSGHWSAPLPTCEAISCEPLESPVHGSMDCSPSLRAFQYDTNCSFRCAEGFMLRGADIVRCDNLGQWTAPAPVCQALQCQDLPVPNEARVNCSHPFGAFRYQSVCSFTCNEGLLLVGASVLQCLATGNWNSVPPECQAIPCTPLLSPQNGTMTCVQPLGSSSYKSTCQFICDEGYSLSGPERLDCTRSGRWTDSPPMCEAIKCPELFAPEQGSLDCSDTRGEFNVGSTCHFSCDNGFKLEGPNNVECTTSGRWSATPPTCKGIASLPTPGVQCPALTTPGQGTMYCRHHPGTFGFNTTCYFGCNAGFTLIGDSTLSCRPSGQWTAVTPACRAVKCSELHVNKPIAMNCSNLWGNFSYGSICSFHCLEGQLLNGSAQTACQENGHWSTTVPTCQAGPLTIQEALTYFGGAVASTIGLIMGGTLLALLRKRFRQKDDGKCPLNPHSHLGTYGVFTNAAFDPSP
Experiment: Compound was tested in a cell-free SLe-polyacrylamide glycoconjugate binding assay (assay A) in P-selectin; value ranges from 1-3
Result type: IC50
Answers without a unit are incomplete; give the number and then its unit.

// query IC50 value for entry COC(=O)CNC(=O)C(C)N(C(=O)CC1OC(COCCCc2ccc(Oc3ccc(Oc4ccccc4)cc3)cc2)C(O)C(O)C1O)C(CCC(=O)O)C(=O)O (stereo unspecified) 1000 µM

---

molecular target: UniProt P16581; test: Compound was tested in a cell-free SLe-polyacrylamide glycoconjugate binding assay (assay A) in Selectin E
Quick reference for pIC50 among some compounds
Please treat pIC50 as minus the base-10 logarithm of the molar concentration.

COC(=O)CNC(=O)C(CCC(=O)O)N(C(=O)CC1OC(CO)C(O)C(O)C1O)C(CCC(=O)O)C(=O)O (stereo not drawn): 2.52

Now look at this one.
Param item = CC(=O)N[C@H]1[C@H]([C@H](O)[C@H](O)CO)O[C@@](O[C@H]2[C@@H](O)[C@@H](CO)O[C@@H](O[C@@H]([C@H](O[C@@H]3O[C@@H](C)[C@@H](O)[C@@H](O)[C@@H]3O)[C@H](C=O)NC(C)=O)[C@H](O)CO)[C@@H]2O)(C(=O)O)C[C@@H]1O [SIALYL LEWIS X] ; retrieve measured pIC50. 3.32

Just for reference, ChEMBL document CHEMBL1130948 is where these values come from.
